Reference for the values: paper PMC9775191

system: G. duodenalis BRIS/91/HEPU/1279; assay: Primary Giardia screen at 10 µM (live-cell imaging, automated counting); format: cell-based, Giardia duodenalis; details: 48 h, first singlicate assay
parameter: % Inhibition n=1 48h (%)
Unit % implied. Number only.

// recorded % Inhibition n=1 48h for `Cc1cccc(-c2nc(-c3ccc(NS(C)(=O)=O)cc3)no2)c1` : 9.2

// recorded % Inhibition n=1 48h for CC1(C)C(NC(=O)Nc2ccc([N+](=O)[O-])cc2)C2CCCOC21 (stereo not shown) : 16.3

// recorded % Inhibition n=1 48h for CN1CCN(CCNC(=O)CN2C(=O)C3CCCCN3c3ccc(C(=O)N4CCCC4)cc32)CC1 (stereo not shown) : 13.0

// recorded % Inhibition n=1 48h for `O=C(Nc1nc(-c2cc3ccccc3oc2=O)cs1)c1cccc(C(F)(F)F)c1` : 0.0

// recorded % Inhibition n=1 48h for `CCC(=O)N1CCc2c(sc3ncnc(N(C)C4CCN(C)CC4)c23)C1` : 0.0

* * *

tested on: Acinetobacter baumannii (ATCC 19606); test: Anti-bacterial activity assay; type: cell-based; conditions: ATCC19606, 50 µM
This listing pairs compounds with measured inhibition at 50 µM.
Unit % implied. Number only.

Cc1ccc(-n2c(=O)c3c(cnn3C)n(CC(=O)Nc3ccccc3C)c2=O)cc1 = 0.24
Cc1ccc(NC(=O)CN2C(=O)C3CCCCN3c3ccc(C(=O)N4CCCC4)cc32)cc1 (stereo not shown) = 4.12
Cc1ccc(C)c(-c2cc3c4nn(CC(=O)N(C)c5ccc(F)cc5)c(=O)n4ccn3n2)c1 = 4.72

Tested system Acinetobacter baumannii (ATCC 19606); inhibition at 50 µM recorded for `CC1CCN(C(=O)c2oc3ccccc3c2NC(=O)c2ccc([N+](=O)[O-])o2)CC1` was 3.19

Tested system Acinetobacter baumannii (ATCC 19606); inhibition at 50 µM recorded for `Nc1c(-c2nc(-c3ccccc3)cs2)c2ccccn2c1C(=O)c1ccc2c(c1)OCO2` was 9.69

Tested system Acinetobacter baumannii (ATCC 19606); inhibition at 50 µM recorded for `O=C(Cc1csc2nc(-c3ccccc3)cn12)Nc1ccc(Cl)cc1` was 4.35

Tested system Acinetobacter baumannii (ATCC 19606); inhibition at 50 µM recorded for `COc1cccc(Nc2c3c(nc4ccccc24)CCC3)c1` was -2.44

* * *

system: G. duodenalis BRIS/91/HEPU/1279; assay: Primary Giardia screen at 10 µM (live-cell imaging, automated counting); type: cell-based, Giardia duodenalis; details: 48 h, first singlicate assay
This listing pairs molecules with measured % Inhibition n=1 48h.
Unit % implied. Number only.

// worked examples, % Inhibition n=1 48h included
O=c1c2c(ncn2Cc2ccc(F)cc2)n(-c2ccccc2)c(=O)n1C1CCCC1 = 6.1
COc1ccc2c(c1)CCCN(C(=O)c1nnc3ccccc3c1N)C2 = 10.7
COc1ccc(C2=Nc3ccccc3N(Cc3cccc(F)c3)C(=O)C2)cc1 = 50.8

Now consider the entry below.
// recorded % Inhibition n=1 48h for `CC(=O)N1CCc2cc(C)c(S(=O)(=O)NC3CC3)cc21` : 4.3

* * *

system: G. duodenalis BRIS/91/HEPU/1279; assay: Primary Giardia screen at 10 µM (live-cell imaging, automated counting); type: cell-based, Giardia duodenalis; details: 48 h, first singlicate assay
Threshold-based label: % Inhibition n=1 48h under 10% gives Satisfied, % Inhibition n=1 48h not under 10% gives Not satisfied.

CN(C)C(=O)c1ccc(OC2CCN(C(=O)c3ccco3)CC2)nc1 = Not satisfied
NC(=O)C1=C(Nc2ccccc2)c2ccccc2S1(=O)=O = Not satisfied
O=[N+]([O-])c1ccc(S(=O)(=O)N2CCCCCC2c2cccs2)cc1 (stereo not shown) = Not satisfied
O=C(c1cnccn1)N1CCN(C(=O)C2CCCC2)CC1 = Satisfied
CC1(c2ccco2)NC(=O)N(NC(=O)c2sc3ccccc3c2Cl)C1=O (stereo not shown) = Not satisfied

Could you please tell me whether % Inhibition n=1 48h recorded for `CCN1CCN(C(=O)c2ccc(N3CCCC3=O)cc2)CC1` is less than 10%?
Satisfied

Could you please tell me whether % Inhibition n=1 48h recorded for CC1(C(=O)NC2CCCCC2)Cn2c(cc3ccccc32)C(=O)N1Cc1ccco1 (stereo not shown) is less than 10%?
Satisfied
